max activation overview
experimentalSystem: Beta-3 adrenergic receptor (Rattus norvegicus)
procedureDetails: Agonist activity at rat beta3 adrenergic receptor expressed in CHO cells assessed as accumulation of cAMP after 30 mins by TR-FRET assay relative to (R)-(-)-isoproterenol
Type: functional, cell-based
recordedMetric: max activation (%)

- compound: "O=C(Nc1ccc(C[C@@H]2CC[C@H]([C@H](O)c3ccccc3)N2)cc1)[C@@H]1CCc2nccc(=O)n21 [VIBEGRON]"
  recordedMetric: "max activation"
  readoutNumber: 83
- compound: "C[C@@H](C(=O)Nc1ccc(C[C@@H]2CC[C@H]([C@H](O)c3ccccc3)N2)cc1)n1ncccc1=O"
  recordedMetric: "max activation"
  readoutNumber: 85
- compound: "O=S(=O)(Nc1ccc(CCNC[C@H](O)c2cccnc2)cc1)c1ccc(-c2nc(-c3ccc(C(F)(F)F)cc3)cs2)cc1"
  recordedMetric: "max activation"
  readoutNumber: 17
- compound: "O=C(Cn1ncccc1=O)Nc1ccc(C[C@@H]2CC[C@H]([C@H](O)c3ccccc3)N2)cc1"
  recordedMetric: "max activation"
  readoutNumber: 79
